What follows is literature data on IC50 for Tyrosine-protein kinase JAK2 (Homo sapiens, UniProt O60674).
OBSERVED_PROPERTY: IC50

{"columns": ["SMILES_CODE", "OBSERVED_PROPERTY", "VAL"],
 "data": [
  ["N#CCC1(n2ccc(-c3ncnc4[nH]ccc34)c2)CN(C2CCN(C(=O)c3cccc(C#N)c3)CC2)C1", "IC50", "50 to 100 nM"],
  ["CCC(=O)c1cnc(Nc2ccc(O[C@@H]3CCN(C)C3)cn2)cc1Nc1cc(F)cc(-c2ncn(C)n2)c1OC", "IC50", "≥ 500 nM"],
  ["CNC(=O)c1n[nH]c2cc(-c3cc(F)c(O)cc3CC(F)(F)F)nc(NCC(C)C)c12", "IC50", "23 nM"],
  ["CCS(=O)(=O)N1CC(CC#N)(n2cc(-c3ccnc(Nc4ccc(C(=O)N5CCCC5)cc4)n3)cn2)C1", "IC50", "< 100 nM"],
  ["NS(=O)(=O)c1cccc2c1C(=O)c1cccc(O)c1C2=O", "IC50", "> 100000 nM"],
  ["COc1cnc2nc1-c1ccc(cc1)C(=O)NCCCCOCc1cc(ccc1N1CCOCC1)N2", "IC50", "11 to 100 nM"],
  ["COc1cc(Nc2ncnc(-c3ccc(OC4CCN(C(=O)[C@H](C)O)CC4)c(C#N)c3)n2)ccc1N1CCN(C2COC2)CC1", "IC50", "185 nM"]
]}

* * *

pIC50: −log10 of the molar value.
pIC50 values for Tyrosine-protein kinase JAK2 (Homo sapiens, UniProt O60674), compiled from several publications.
OBSERVED_PROPERTY: pIC50

{"columns": ["SMILES_CODE", "VAL"],
 "data": [
  ["C[C@@H](O)c1nc2cnc3ccsc3c2n1[C@H]1CC[C@H](CF)CC1", "≥ 5.70"],
  ["CCC(=O)c1cnc(Nc2ccc(CN3CC(OC)C3)cn2)cc1Nc1cccc(-c2ncn(C)n2)c1OC", "≤ 6.30"],
  ["CC(C)Oc1ccc2[nH]c3c(C(N)=O)cc(-c4ccc(Cl)c(Cl)c4)cc3c2c1", 6.82],
  ["CCC(=O)c1cnc(Nc2ccc(CN(C)C)cn2)cc1Nc1cccc(-c2ncn(C)n2)c1OC", "≤ 6.30"]
]}

* * *

Recorded IC50 for compounds tested on Tyrosine-protein kinase JAK2 (Homo sapiens, UniProt O60674), drawn from a number of studies.
OBSERVED_PROPERTY: IC50

{"columns": ["COMPOUND", "ASSAYED_TARGET", "VAL"],
 "data": [
  ["N#CCC(C1CC1)n1cc(-c2nc(C(=O)Nc3ccccn3)cc3nccn23)cn1 (stereo not shown)", "Tyrosine-protein kinase JAK2 (Homo sapiens, UniProt O60674)", "> 1000 nM"],
  ["N#CCC1(n2cc(-c3ncnc4[nH]ccc34)cn2)CN(C2CCN(C(=O)Nc3cc(F)cc(F)c3)CC2)C1", "Tyrosine-protein kinase JAK2 (Homo sapiens, UniProt O60674)", "≤ 10 nM"],
  ["N#CCC1(n2cc(-c3ncnc4[nH]ccc34)cn2)CN(C2CCN(C(=O)c3ccc(-c4cccc5ncccc45)c(F)c3)CC2)C1", "Tyrosine-protein kinase JAK2 (Homo sapiens, UniProt O60674)", "≤ 10 nM"],
  ["Cc1nc(C(F)(F)F)ccc1NC(=O)N1CCC(N2CC(CC#N)(n3cc(-c4ncnc5[nH]ccc45)cn3)C2)CC1", "Tyrosine-protein kinase JAK2 (Homo sapiens, UniProt O60674)", "10 to 50 nM"],
  ["O=C(NCCC(F)(F)F)c1nn(CCc2cccnc2)c2c1CN(c1ncnc3[nH]ccc13)CC2", "Tyrosine-protein kinase JAK2 (Homo sapiens, UniProt O60674)", "> 2000 nM"],
  ["O=C1NCCCCOCc2cc(ccc2Br)Nc2nccc(n2)-c2ccc1cc2[N+](=O)[O-]", "Tyrosine-protein kinase JAK2 (Homo sapiens, UniProt O60674)", "1000 to 10000 nM"],
  ["NC(=O)c1cc(-c2ccc(F)c(F)c2)nc2c1[nH]c1cc(C(=O)N3CCOCC3)ccc12", "Tyrosine-protein kinase JAK2 (Homo sapiens, UniProt O60674)", "7 nM"]
]}

* * *

Field: IC50. System: Tyrosine-protein kinase JAK2 (Homo sapiens). Provenance: assorted publications.

{"columns": ["COMPOUND", "IC50"],
 "data": [
  ["Nc1cc2ccc1-c1ccnc(n1)Nc1ccc(OCC3CCOC3)c(c1)COc1ccc(cc1)NC2=O (centres unmarked)", "101 to 1000 nM"],
  ["Nc1cc2ccc1-c1ccnc(n1)Nc1ccc(OCC3CCC3)c(c1)COCCCCNC2=O", "101 to 1000 nM"],
  ["Cc1cn2ccc(Nc3ncc(Cl)c(NC4CCN(c5ccc(C#N)nn5)CC4)n3)cc2n1", "10 nM"],
  ["N#CCNC(=O)c1ccc(-c2ccnc(Nc3ccc(N4CCS(=O)(=O)CC4)cc3)n2)cc1", "< 100 nM"],
  ["CCC(CC)n1cc(-c2nc(-c3cnn(C[C@@H](O)COC)c3)cn3nccc23)cn1", "10 to 100 nM"],
  ["N#Cc1cc(-c2ncnc(Nc3ccccc3)n2)ccc1OC1CCOCC1", "> 1000 nM"],
  ["CCNC(=O)c1ccc(Nc2nccc(-c3ccc(NC(=O)[C@@H]4CC4(F)F)nc3)n2)cc1", "7 nM"],
  ["N#Cc1cc(-c2ncnc(Nc3ccc(N4CCN(C5COC5)CC4)cc3)n2)ccc1O[C@@H]1CN(C(=O)CO)C[C@H]1F", "≥ 1000 nM"]
]}

* * *

We begin with IC50 values for Tyrosine-protein kinase JAK2 (Homo sapiens), as collected from the published literature.
OBSERVED_PROPERTY: IC50

{"columns": ["COMPOUND", "VAL"],
 "data": [
  ["CCC(CC)n1cc(-c2nc(-c3cnn([C@H](C)[C@@H](C)O)c3)cn3nccc23)cn1 (single isomer, unassigned)", "0.01 to 0.1 µM"],
  ["N#Cc1cc(-c2ncnc(Nc3ccc(N4CCN(C5COC5)CC4)cc3)n2)ccc1O[C@H]1CCN(C(=O)[C@@H]2CSC(=O)N2)CC1(F)F", "0.177 µM"],
  ["CCC(CC)n1cc(-c2nc(-c3cnn(CC4(O)CCN(C(C)=O)CC4)c3)cn3nccc23)cn1", "0.1 to 1 µM"],
  ["N#CCC1(n2cc(-c3c(C#N)cnc4[nH]ccc34)cn2)CN(C2CCN(C(=O)c3cc(Br)ccc3Br)CC2)C1", "≤ 0.01 µM"],
  ["N#CCC(C1CCOCC1)n1cc(-c2ccnc(Nc3ccc(C(=O)N4CCOCC4)cc3)n2)cn1 (racemic)", "< 0.1 µM"],
  ["N#CCC(C1CCCC1)n1cc(-c2ccnc(Nc3cccc(C(=O)N[C@H]4CCN(Cc5ccccc5)C4)c3)n2)cn1 (mixture of isomers)", "< 0.1 µM"],
  ["N#CCC1(n2cc(-c3ncnc4[nH]ccc34)cn2)CN(C2CCN(C(=O)Nc3ccccc3Cl)CC2)C1", "0.01 to 0.05 µM"]
]}

* * *

pIC50: −log10 of the molar value.
Collected literature values of pIC50 measured for UniProt O60674.

{"columns": ["MOLECULE", "pIC50"],
 "data": [
  ["N#CCC(C1CCCC1)n1cc(-c2ccnc(Nc3ccc(NC(=O)c4ccccc4)cc3)n2)cn1 (racemic)", "> 7.00"],
  ["C[C@@H](O)CC(=O)N1CC[C@H](Oc2ccc(-c3ncnc(Nc4ccc(N5CCN(C6COC6)CC5)cc4)n3)cc2C#N)[C@H](F)C1", 6.15],
  ["CCC(C(=O)O)n1cc(-c2nc(-c3cnn(C)c3)cn3nccc23)cn1 (stereo not shown)", "5.00 to 6.00"],
  ["N#CCNC(=O)c1ccc(-c2nc(Nc3ccc(N4CCOCC4)cc3)ncc2Cl)cc1", "> 7.00"]
]}

* * *

Please find below pIC50 measurements for Tyrosine-protein kinase JAK2 (Homo sapiens, UniProt O60674), combined from several publications.
pIC50: −log10 of the molar value.
OBSERVED_PROPERTY: pIC50

{"columns": ["COMPOUND", "VAL"],
 "data": [
  ["O=C(NC1CC(O)(C(F)(F)F)C1)c1noc2c1CN(c1ncnc3[nH]ccc13)CC2 (stereo not drawn)", "6.30 to 7.00"],
  ["COc1cnc(Nc2cccc(-c3cnco3)c2)nc1-c1cnn(C(CC#N)C2CC2)c1 (racemic)", "> 7.00"],
  ["CCOC(=O)N1CCC(NC(=O)c2ccc(Nc3nccc(-c4cnn(C(CC#N)C5CCCC5)c4)n3)cc2)CC1 (racemic)", "> 7.00"],
  ["CCC(Cn1ccc2cnc(Nc3cnn(CC(=O)O)c3)nc21)C(C)C (stereo not drawn)", "> 7.00"],
  ["N#CCC1(n2cc(-c3nc(-c4cnn(C5COC5)c4)cc4nccn34)cn2)CN(CC(F)(F)F)C1", "7.00 to 8.00"],
  ["CCS(=O)(=O)N1CC(CC#N)(n2cc(-c3nc(Nc4cnn(CCC(=O)N(C)C)c4)nc4ccsc34)cn2)C1", "> 7.30"],
  ["N#CCC1(n2cc(-c3ccnc4[nH]ccc34)cn2)CN(C2CCN(C(=O)Nc3cnccc3C(F)(F)F)CC2)C1", "7.00 to 7.30"],
  ["COc1cc(Nc2cc3c(ccn3S(=O)(=O)c3cccc4cccnc34)cn2)ccc1N1CCNCC1", "< 6.00"],
  ["C[C@H](NC(=O)c1ccc(N2CC(CC#N)(n3cc(-c4ncnc5[nH]ccc45)cn3)C2)c(F)c1)C(F)(F)F", "≥ 8.00"],
  ["CCC(=O)c1cnc(Nc2ccc(C(C)NCC(F)(F)F)cn2)cc1Nc1cccc(-c2ncn(C)n2)c1OC (stereo not drawn)", "6.30 to 7.30"],
  ["N#CCC(C1CCCC1)n1cc(-c2ccnc(Nc3ccc(C(=O)N4C5CC6CC4CC(C5)O6)cc3)n2)cn1 (racemic)", "> 7.00"],
  ["O=C(NC12CC(n3cnc4cnc5[nH]ccc5c43)(C1)C2)C1CC(F)(F)C1", 7.05],
  ["N#CCC(C1CCCC1)n1cc(-c2ccnc(Nc3ccc(C(=O)N4CCC4)cc3)n2)cn1 (racemic)", "> 7.00"],
  ["CCOC(=O)c1ccc(Nc2ncc3ccn(CC(CC)CC)c3n2)cc1", "6.00 to 7.00"],
  ["CCC(CC)n1cc(-c2nc(-c3cnn(C[C@@H](O)CNC)c3)cn3nccc23)cn1", "7.00 to 8.00"],
  ["CC(C)COC(=O)N1CCC(N2CC(CC#N)(n3cc(-c4ncnc5[nH]ccc45)cn3)C2)CC1", "7.30 to 8.00"],
  ["Cc1ccc(NC(=O)c2cc(N3CCC(O)CC3)cc(C(F)(F)F)c2)cc1-c1ccc2c(c1)[nH]c1ncncc12", "≥ 6.30"],
  ["CN(c1ncnc2[nH]ccc12)C1CCC2(CC1)CCN(C(=O)CC#N)CC2", "5.00 to 6.00"],
  ["N#CCC(C1CCCC1)n1cc(-c2ccnc(Nc3cccc(C(=O)NCCO)c3)n2)cn1 (racemic)", "> 7.00"],
  ["N#CCC1(n2cc(-c3ncnc4[nH]ccc34)cn2)CN(C2CCN(C(=O)c3cc(F)c(F)c(F)c3)CC2)C1", "7.00 to 7.30"],
  ["COCC(=O)N1CC[C@H](Oc2ccc(-c3ncnc(Nc4ccc(C5CCN(C=O)CC5)c(C)c4)n3)cc2C#N)[C@H](F)C1", 6.32],
  ["CO[C@H](C)Cn1cc(-c2cc3nccn3c(-c3cnn(C4(CCF)CN(S(=O)(=O)C(F)(F)F)C4)c3)n2)cn1", "7.00 to 8.00"],
  ["N#Cc1cc(-c2ncnc(Nc3ccc(N4CCN(C5COC5)CC4)cc3)n2)ccc1OCC1CCC(=O)N1 (stereo not drawn)", "≤ 6.00"],
  ["CC(C)(C)NS(=O)(=O)c1cccc(N2CCc3cnc(Nc4ccc(CC5CCOCC5)cc4)nc32)c1", 9.30],
  ["CCC1CN(c2ccc(C#N)nn2)CCC1Nc1nc(Nc2ccn3c(C)cnc3c2)ncc1Cl (stereo not drawn)", 8.70],
  ["CC#Cc1ccc(C(=O)N2CC3(CC(N(C)c4ncnc5[nH]ccc45)C3)C2)cc1", "7.00 to 8.00"],
  ["O=C1NCCCCOCc2cc(cc(Cl)c2N2CCOCC2)Nc2nccc(n2)-c2ccc1cc2", "7.00 to 7.96"],
  ["CCC(CC)n1cc(-c2nc(-c3cnn(C[C@@H](CN)OC)c3)cn3nccc23)cn1 (single isomer, unassigned)", "6.00 to 7.00"],
  ["Cc1cc2ccc1-c1ccnc(n1)Nc1ccc(N3CCOCC3)c(c1)COCCCCNC2=O", "6.00 to 7.00"],
  ["N#CCNC(=O)c1ccc(-c2ccnc(Nc3ccc(CN4CCS(=O)(=O)CC4)cc3)n2)cc1", "> 7.00"]
]}
